Origin of measurements: patent US12570642B2

The molecules listed here are annotated with their EC50.
molecular target: GLP-1R (Homo sapiens, UniProt P43220); assay: GLP-1R Activation - cAMP Assay; format: cell-based; details: cAMP increase in CHO cells stably expressing GLP-1R; each compound run on one of the two cAMP assays (Assay 1 or Assay 2, not specified)
Sequence (P43220 24-463): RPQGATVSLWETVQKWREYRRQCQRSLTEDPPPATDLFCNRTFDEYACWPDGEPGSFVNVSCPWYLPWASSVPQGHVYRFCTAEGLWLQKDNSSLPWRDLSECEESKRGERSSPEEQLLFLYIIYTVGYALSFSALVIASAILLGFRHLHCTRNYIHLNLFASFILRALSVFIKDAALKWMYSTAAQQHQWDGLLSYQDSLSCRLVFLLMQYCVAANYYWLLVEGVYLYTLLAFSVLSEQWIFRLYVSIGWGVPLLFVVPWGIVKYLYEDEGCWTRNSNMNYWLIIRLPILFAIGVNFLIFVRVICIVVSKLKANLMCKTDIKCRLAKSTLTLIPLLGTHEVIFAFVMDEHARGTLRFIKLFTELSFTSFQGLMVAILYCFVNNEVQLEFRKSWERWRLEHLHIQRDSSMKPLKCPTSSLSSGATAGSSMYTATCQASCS
observable: EC50 (pM)

1. C#Cc1ccc(COc2cccc(-c3cc(F)c(Cc4nc5ccc(C(=O)O)cc5n4CCOC)cc3F)n2)c(F)c1: 1460
2. CC1(C)COCC1n1c(Cc2cc(F)c(-c3cccc(OCc4cnc(-n5ccnc5)cc4Cl)n3)cc2F)nc2c(F)cc(C(=O)O)cc21 (stereo not shown): 51
3. Cc1cc(Cc2nc3ccc(C(=O)O)cc3n2[C@@H]2COCC2(C)C)c(Cl)cc1-c1ccnc(OCc2ccc(C#N)cc2)n1: 714
4. CC1(C)COC[C@H]1n1c(Cc2ccc(-c3cccc(OCc4ccc(C#N)cc4)n3)cc2F)nc2c(F)cc(C(=O)O)cc21: 163
5. O=C(O)c1ccc2nc(Cc3cc(F)c(-c4cccc(OCc5ccc6c(c5)CN(C(=O)C5CC5)C6)n4)cc3F)n(C[C@@H]3CCO3)c2c1: 270
6. CC1(C)COC[C@H]1n1c(Cc2cc(F)c(-c3cccc(OCc4ccc(F)c(F)c4)n3)cc2F)nc2ccc(C(=O)O)cc21: 157
7. COCCn1c(Cc2c(F)cc(-c3ccc(F)c(OCc4ccc(Cl)cc4F)n3)c(F)c2F)nc2c(F)cc(C(=O)O)cc21: 203
8. CC1(C)COCC1n1c(Cc2cc(F)c(-c3cccc(OCc4cnc(-n5ccnn5)cc4Cl)n3)cc2F)nc2c(F)cc(C(=O)O)cc21 (stereo not shown): 18
9. CC1(C)COC[C@H]1n1c(Cc2cc(F)c(-c3ccc(F)c(OCc4ccc(Cl)cc4F)n3)cc2F)nc2ccc(C(=O)O)cc21: 206
10. COCCn1c(Cc2cc(F)c(-c3cccc(OCc4ccc(-c5cnn(C(F)(F)F)c5)cc4F)n3)cc2F)nc2ccc(C(=O)O)cc21: 600
11. COCCn1c(Cc2cc(F)c(-c3cc(N)nc(OCc4ccc(C#N)cc4F)n3)cc2F)nc2ccc(C(=O)O)cc21: 16700
12. C[C@@H]1COC[C@@H]1n1c(Cc2cc(F)c(-c3cccc(OCc4ccc(C#N)cc4F)n3)cc2F)nc2ccc(C(=O)O)cc21 (racemic): 43
13. N#Cc1ccc(COc2cccc(-c3cc(F)c(Cc4nc5ccc(C(=O)O)cc5n4[C@@H]4COC[C@@H]4COC(F)F)cc3F)n2)c(F)c1: 594

====

biological target: UniProt:P43220; assay: GLP-1R Activation - cAMP Assay; assay type: cell-based; conditions: cAMP increase in CHO cells stably expressing GLP-1R; each compound run on one of the two cAMP assays (Assay 1 or Assay 2, not specified)
observable: EC50

1) N#Cc1ccc(COc2cccc(-c3cc(F)c(Cc4nc5ccc(C(=O)O)cc5n4C4COCC45CC5)cc3F)n2)c(F)c1 (stereo not drawn): 0.175 nM
2) CO[C@@H]1COCC1n1c(Cc2cc(F)c(-c3cccc(OCc4ccc(C#N)cc4F)n3)cc2F)nc2c(F)cc(C(=O)O)cc21 (mixture of isomers) [Example 256]: 0.117 nM
3) COCCn1c(Cc2cc(F)c(-c3cccc(OCc4ccc(C#N)cc4)n3)cc2F)nc2ccc(C(=O)O)c(F)c21: 0.272 nM
4) N#Cc1ccc(COc2cccc(-c3cc(F)c(Cc4nc5ccc(C(=O)O)cc5n4[C@H]4COC[C@H]4C(F)F)cc3F)n2)c(F)c1 (single isomer, unassigned): 0.448 nM
5) CC1(C)COC[C@H]1n1c(Cc2cc(F)c(-c3ccc(F)c(OCc4ccc(C#N)cc4F)n3)cc2F)nc2c(F)cc(C(=O)O)cc21: 0.005 nM
6) N#Cc1ccc(COc2cccc(-c3cc(F)c(Cc4nc5ccc(C(=O)O)cc5n4CC4CC5(CC5)CO4)cc3F)n2)c(F)c1 (stereo not drawn): 0.643 nM

====

molecular target: GLP-1R (Homo sapiens, UniProt P43220); test: GLP-1R Activation - cAMP Assay; type: cell-based; conditions: cAMP increase in CHO cells stably expressing GLP-1R; each compound run on one of the two cAMP assays (Assay 1 or Assay 2, not specified)
pEC50: −log10 of the molar value.
Criterion: pEC50 meeting or surpassing 9. Met: rule met. Not met: rule not met.

1. CC1(C)COC[C@H]1n1c(Cc2cc(F)c(-c3cccc(OCc4cc(F)c(Cl)cc4F)n3)cc2F)nc2ccc(C(=O)O)cc21 [Example 490]: rule met
2. CC1(C)CC(n2c(Cc3cc(F)c(-c4cccc(OCc5ccc(C#N)cc5F)n4)cc3F)nc3ccc(C(=O)O)cc32)C(C)(C)O1 (stereo not drawn) [Example 199]: rule not met
3. Cc1cc(Cc2nc3ccc(C(=O)O)cc3n2[C@@H]2COCC2(C)C)c(F)cc1-c1ccc(F)c(OCc2ccc(C#N)cc2)n1 [Example 180]: rule met
4. CC1(C)COC[C@H]1n1c(Cc2cc(F)c(-c3ccc(F)c(OCc4ccc(C#N)cc4F)n3)cc2F)nc2c(Cl)cc(C(=O)O)cc21 [Example 127]: rule met

====

biological target: UniProt:P43220; experiment: GLP-1R Activation - cAMP Assay; assay type: cell-based; details: cAMP increase in CHO cells stably expressing GLP-1R; each compound run on one of the two cAMP assays (Assay 1 or Assay 2, not specified)
observable: EC50 (nM)

1. CC1(C)COC[C@H]1n1c(Cc2ccc(-c3ccc(F)c(OCc4ccc(C#N)cc4F)n3)cc2F)nc2ccc(C(=O)O)cc21: 0.011
2. N#Cc1ccc(COc2cccc(-c3cc(F)c(Cc4nc5ccc(C(=O)O)cc5n4C4CCCC45CC5)cc3F)n2)c(F)c1 (centres unmarked): 2.55
3. CC(C)OCCn1c(Cc2cc(F)c(-c3cccc(OCc4cnc(-n5ccnn5)cc4Cl)n3)cc2F)nc2ccc(C(=O)O)cc21: 0.558
4. Cc1cnc(COc2cccc(-c3cc(F)c(Cc4nc5ccc(C(=O)O)cc5n4[C@@H]4COCC4(C)C)cc3F)n2)c(F)c1: 0.52
5. CC1(C)COC[C@H]1n1c(Cn2cc(F)c(-c3ccc(F)c(OCc4ccc(C#N)cc4F)n3)cc2=O)nc2ccc(C(=O)O)cc21: 0.555
6. COc1cc(Cl)ncc1COc1nc(-c2cc(F)c(Cc3nc4ccc(C(=O)O)cc4n3[C@@H]3COCC3(C)C)cc2F)ccc1F: 0.012
7. COCCn1c(Cc2cc(F)c(-c3cccc(OCc4ccc(-c5cn(C)nn5)nc4)n3)cc2F)nc2ccc(C(=O)O)cc21: 1.4
8. CC1(C)COC[C@H]1n1c(Cc2ccc(-c3ccc(F)c(OCc4ccc(C#N)cc4)n3)cc2F)nc2c(F)cc(C(=O)O)cc21: 0.18
9. COCCn1c(Cc2ccc(-c3ccc(F)c(OCc4cnc(-n5ccnn5)cc4Cl)n3)cc2F)nc2ccc(C(=O)O)cc21: 0.416
10. CC1(C)COC[C@H]1n1c(Cc2ccc(-c3cccc(OCc4ccc(Cl)cc4)n3)cc2F)nc2ccc(C(=O)O)cc21: 0.127
11. N#Cc1ccc(COc2cccc(-c3cc(F)c(Cc4nc5ccc(C(=O)O)cc5n4C4CC45CC5)cc3F)n2)c(F)c1 (centres unmarked): 7.32
12. CC1(C)COCC1n1c(Cc2cc(F)c(-c3cccc(OCc4ncc(C(F)(F)F)cc4F)n3)cc2F)nc2c(F)cc(C(=O)O)cc21 (centres unmarked): 0.155
13. COCCn1c(Cc2cc(F)c(-c3cccc(OCc4ccc(-n5ccnc5)cc4F)n3)cc2F)nc2ccc(C(=O)O)cc21: 0.83
14. Cc1cc(Cc2nc3ccc(C(=O)O)cc3n2[C@@H]2COCC2(C)C)c(Cl)cc1-c1ccnc(OCc2ccc(Cl)cc2F)n1: 0.745
15. CC1(C)COC[C@H]1n1c(Cc2cc(F)c(-c3ccnc(OCc4ccc(Cl)cc4F)n3)cc2F)nc2c(F)cc(C(=O)O)cc21: 0.044
16. COCCn1c(Cc2cc(F)c(-c3cccc(OCc4cnc(-n5nc6c(n5)CCCC6)cc4Cl)n3)cc2F)nc2ccc(C(=O)O)cc21: 100
17. N#Cc1ccc(COc2cccc(-c3cc(F)c(Cc4nc5ccc(C(=O)O)cc5n4C4COC[C@H]4CO)cc3F)n2)c(F)c1 (mixture of isomers): 1.11
18. Cn1cc(-c2cc(F)c(COc3cccc(-c4cc(F)c(Cc5nc6ccc(C(=O)O)cc6n5C5COCC5(C)C)cc4F)n3)cn2)cn1 (centres unmarked): 0.7
19. CC1(C)COCC1n1c(Cc2cc(F)c(-c3cccc(OCc4ncc(Cl)cc4F)n3)cc2F)nc2ccc(C(=O)O)cc21 (centres unmarked): 0.066
20. COCCn1c(Cc2c(F)cc(-c3cccc(OCc4ccc(C#N)cc4F)n3)c(F)c2F)nc2c(F)cc(C(=O)O)cc21: 0.133
21. N#Cc1ccc(COc2cccc(-c3cc(F)c(Cc4nc5ccc(C(=O)O)cc5n4C45COCC4C5)cc3F)n2)c(F)c1 (centres unmarked): 13.8
22. N#Cc1ccc(COc2cccc(-c3cc(F)c(Cc4nc5ccc(C(=O)O)cc5n4[C@@H]4CO[C@@H]5CNC[C@H]45)cc3F)n2)c(F)c1: 4.91
23. CC1(C)COC[C@H]1n1c(Cc2cc(F)c(-c3cccc(OCc4cnc(-n5ccnn5)cc4Cl)n3)cc2F)nc2ccc(C(=O)O)cc21: 0.053
24. CC1(C)COC[C@H]1n1c(Cc2c(F)cc(-c3ccc(Cl)c(OCc4ccc(C#N)cc4)n3)c(F)c2F)nc2ccc(C(=O)O)cc21: 0.491
25. CC1(C)COC[C@H]1n1c(Cc2cc(F)c(-c3ccc(F)c(OCc4cnc(-n5ccnn5)cc4Cl)c3)cc2F)nc2ccc(C(=O)O)cc21: 0.053
26. CC1(C)COCC1n1c(Cc2cc(F)c(-c3ccnc(OCc4ccc(C(F)F)cc4F)n3)cc2Cl)nc2c(F)cc(C(=O)O)cc21 (centres unmarked): 0.147
